Each recorded value in this set is attributed to ChEMBL document CHEMBL4376814.

system name: CDK6/cyclin D3 (Homo sapiens) (UniProt P30281+Q00534)
assay name: Inhibition of recombinant full-length human CDK6/cyclinD3 at 1 uM using histone H1 as substrate measured after 40 mins in presence of [gamma33P]ATP by scintillation counting method relative to control
Type: protein-complex assay
quantity kind: inhibition

**Query** Using the record for CN(C)C(=O)c1cc2cnc(Nc3ccc(C(=O)NCCCCCN=C=S)cc3O)nc2n1C1CCCC1 , report its inhibition.
**Result** 60%

**Query** Using the record for CN(C)C(=O)c1cc2cnc(Nc3ccc(NC(=O)CCCCCCCN=C=S)cc3)nc2n1C1CCCC1 , report its inhibition.
**Result** 79%

**Query** Using the record for CN(C)C(=O)c1cc2cnc(Nc3ccc(C(=O)NCCCCCCN=C=S)cc3)nc2n1C1CCCC1 , report its inhibition.
**Result** 92%

**Query** Using the record for CN(C)C(=O)c1cc2cnc(Nc3ccc(C(=O)NCCCCCCCN=C=S)cc3)nc2n1C1CCCC1 , report its inhibition.
**Result** 85%

**Query** Using the record for CN(C)C(=O)c1cc2cnc(Nc3ccc(C(=O)NCCCCCN=C=S)cc3)nc2n1C1CCCC1 , report its inhibition.
**Result** 94%
